// inhibition lookup, one value per entry
# experiment_notes: human hepatoma cell viability loss – ATP luminescence, cytotoxicity control for P. falciparum antimalarial project, primary screen (AID 2303);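 note: 0% = DMSO wells and 100% = digitonin-killed cells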
# test_conditions: HepG2 viability, 24-48 h, at 10 µM, hits give high values
Give the value in % but do not write % after it.

See these solved cases before continuing.
COc1cccc(C2CCN(CCN3CCC(NC(=O)c4ccc(-c5ccc(C(F)(F)F)cc5)cc4)CC3)CC2)c1
46
Nc1ccc2[nH]cc(C3CCN(CC4CCN(C(=O)/C=C/c5ccc(Cl)c(Cl)c5)CC4)CC3)c2n1
53
Cc1cc(OC(C)C(=O)N2CCc3ccccc32)ccc1Cl (stereo unspecified)
20
O=C(Nc1ccc2c(c1)CCC2)c1ccc(N2CCN(c3ccncc3)CC2)cc1
72

Could you now consider this next compound?
Ask: Name the recorded inhibition for CC(=O)Nc1cccc(C(=O)Nc2nc3ccc(-c4cc(=O)[nH]c(Nc5ccccc5Cl)n4)cc3[nH]2)c1 .
Reply: -2

----------
# tested_target: L-lactate dehydrogenase (Plasmodium falciparum (isolate CDC / Honduras)) (UniProt Q27743)
# Sequence (Q27743 whole entry, looked up): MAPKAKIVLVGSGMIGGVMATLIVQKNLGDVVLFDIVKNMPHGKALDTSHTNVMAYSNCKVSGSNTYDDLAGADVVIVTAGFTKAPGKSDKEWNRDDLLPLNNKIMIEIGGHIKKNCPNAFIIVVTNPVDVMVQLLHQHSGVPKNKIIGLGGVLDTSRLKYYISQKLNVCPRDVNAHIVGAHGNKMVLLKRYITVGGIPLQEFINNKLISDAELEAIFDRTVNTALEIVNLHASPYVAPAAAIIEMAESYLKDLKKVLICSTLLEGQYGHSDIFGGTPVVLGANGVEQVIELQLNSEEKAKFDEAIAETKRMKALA
# experiment_notes: PfLDH activity inhibition – cell lysate, 3D7 strain, counter-screen for P. falciparum growth inhibition project (AID 2304);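 note: 0% = vehicle and 100% = reference inhibitor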
# test_conditions: P. falciparum 3D7 crude extract, LDH APAD/NBT absorbance; at 2 µM; hits give high values
reported_property: inhibition (%)
Report only the number, with the unit % understood.

O=C(Nc1ccc(F)cc1)NC1CCN(c2ccnc3cc(Cl)ccc23)CC1
0
Cc1cc(NC(=O)Nc2ccc3ccn(C)c3c2)c2ccccc2n1
-1

Ask: Give the measured inhibition of O=C(Cc1cnc[nH]1)Nc1cccc(-c2cccc(-c3nc4ccc(C(F)(F)F)cc4[nH]3)c2)c1 .
Reply: -3

Ask: Then CCOC(=O)CN1Cc2cc(NCc3ccc4ccc5nc(C)[nH]c(=O)c5c4c3)ccc2C1=O ?
Reply: 1

Ask: Then what about the compound CC(C)CCN1CCC(Oc2ccc(NC(=O)c3cccs3)cc2Cl)CC1 ?
Reply: -6

----------
# tested_target: L-lactate dehydrogenase (Plasmodium falciparum (isolate CDC / Honduras)) (UniProt Q27743)
# experiment_notes: PfLDH activity inhibition – cell lysate, 3D7 strain, counter-screen for P. falciparum growth inhibition project (AID 2304);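 note: 0% = vehicle and 100% = reference inhibitor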
# test_conditions: P. falciparum 3D7 crude extract, LDH APAD/NBT absorbance; at 2 µM; hits give high values
Known inhibition of a selection of molecules
Numbers only here, please. The scale is %.

COc1cccc(C(=O)OC2=C3CCC(=O)C3(C)CCC2=O)c1 (stereo not given)
2

Ask: inhibition lookup needed for Cc1onc(-c2ccccc2)c1C(=O)Nc1nc(-c2ccccn2)nc2ccsc12 , thanks.
Reply: -4

Ask: Note, next up: c1ccc(-c2nc(NCCCn3ccnc3)cc(-c3ccncc3)n2)cc1
Reply: -8

Ask: Okay, and COc1cccc(NC(=O)[C@H](C)n2c(=O)[nH]c3ccccc3c2=O)c1 ?
Reply: -3

Ask: What do you get for Clc1ccc(OCCC2CCN(CCCCCCN3CCCCC3)CC2)cc1Cl ?
Reply: 9

Ask: What do we get for Fc1ccc2nc(-c3cccc(-c4ccc(CNCC5CCCO5)cc4)c3)[nH]c2c1 (stereo not given) ?
Reply: 0

Ask: Check COc1ccc2nc(C)cc(NC3Cc4ccccc4C3)c2c1 too.
Reply: 5

Ask: Thanks! And OCCN1CCN(C(=S)Nc2ccccc2)CC1 ?
Reply: 2

Ask: Follow-up entry: CC(C)N1CCC(N(Cc2ccc(-c3ccc(Cl)cc3)cc2)C(=O)Cn2c(CCc3cccc(F)c3F)cc(=O)c3ccccc32)CC1
Reply: 4

Ask: Same question, CC1CCN(Cc2ccc(NC(=O)c3cc4ccc5cccnc5c4[nH]3)cc2)CC1 this time
Reply: -1
